Test system: OVCAR5
Assay: drug sensitivity score (DSS) from 5-point dose-response viability curve (DSS (area-under-curve based score)); higher = more sensitive (stronger growth inhibition or killing); extreme values may be limits of the assay
Settings: exposure time: 72 h; concentration range: 5 concentrations over 10,000-fold range
property label: drug sensitivity score

{"columns": ["record smiles", "recorded result"],
 "data": [
  ["CC#CC(=O)N1CCC[C@H]1c1nc(-c2ccc(C(=O)Nc3ccccn3)cc2)c2c(N)nccn12", 0.2],
  ["CC(C)(C)Cn1c(N)nc2ccc(-c3[nH]c(C(C)(C)C)nc3-c3ccc(F)cc3)nc21", 4.3],
  ["Nc1ccn([C@@H]2O[C@H](CO)[C@@H](O)C2(F)F)c(=O)n1", 15.5],
  ["Cn1cncc1[C@@](N)(c1ccc(Cl)cc1)c1ccc2c(c1)c(-c1cccc(Cl)c1)cc(=O)n2C", 4.3],
  ["C[C@H]1C[C@@H]2[C@H]([C@@H](O)C[C@@]3(C)[C@H]2CC[C@]3(O)C(=O)CO)[C@@]2(C)C=CC(=O)C=C12", 0],
  ["CC(C)[C@H](C(=O)Nc1ccc(C(=O)NO)cc1)c1ccccc1", 16.5],
  ["C/C=C1\\NC(=O)[C@H]2CSSCC/C=C/[C@H](CC(=O)N[C@H](C(C)C)C(=O)N2)OC(=O)[C@H](C(C)C)NC1=O", 33.3],
  ["C[C@]1(c2nc3c(C(N)=O)cccc3[nH]2)CCCN1", 1.3],
  ["CCn1c(-c2nonc2N)nc2c(C#CC(C)(C)O)ncc(OC[C@H]3CCCNC3)c21", 0],
  ["CCN1CCN(Cc2ccc(Nc3ncc(F)c(-c4cc(F)c5nc(C)n(C(C)C)c5c4)n3)nc2)CC1", 7.4],
  ["COc1cc2c(Oc3ccc4[nH]c(C)cc4c3F)ncnc2cc1OCCCN1CCCC1", 0],
  ["Cc1c(-c2ccc(N3CCc4cccc(C(=O)Nc5nc6ccccc6s5)c4C3)nc2C(=O)O)cnn1CC12CC3CC(CC(C3)C1)C2", 1],
  ["CC[C@H](C)C(=O)O[C@H]1C[C@@H](C)C=C2C=C[C@H](C)[C@H](CC[C@@H]3C[C@@H](O)CC(=O)O3)[C@H]21", 0.8],
  ["C[C@H]1CN(C2COC2)CCN1c1ccc(Nc2cc(-c3ccnc(N4CCn5c(cc6c5CC(C)(C)C6)C4=O)c3CO)cn(C)c2=O)nc1", 0],
  ["O=C(c1ccc(C(=O)N2CCC(N3CCCC3)CC2)c(Nc2ccccc2)c1)N1CCC(N2CCCC2)CC1", 0]
]}

* * *

Test system: HOSE1C
Test: drug sensitivity score (DSS) from 5-point dose-response viability curve (DSS (area-under-curve based score)); higher = more sensitive (stronger growth inhibition or killing); extreme values may be limits of the assay
Details: exposure time: 72 h; concentration range: 5 concentrations over 10,000-fold range
# drug sensitivity score annotations
property label: drug sensitivity score

{"columns": ["compound", "property label", "recorded result"],
 "data": [
  ["CONC(=O)c1ccccc1Nc1cc(Nc2cc(C)nn2C(C)C)ncc1Cl", "drug sensitivity score", 0],
  ["COc1c(C)cnc(Cn2cnc3c(Cl)nc(N)nc32)c1C", "drug sensitivity score", 15],
  ["CCC1=C[C@@H]2CN(C1)Cc1c([nH]c3ccccc13)[C@@](C(=O)OC)(c1cc3c(cc1OC)N(C)[C@H]1[C@@](O)(C(=O)OC)[C@H](OC(C)=O)[C@]4(CC)C=CCN5CC[C@]31[C@@H]54)C2", "drug sensitivity score", 30.2],
  ["CN1CC[C@@H](NC(=O)Nc2ccc(C#N)cc2)C[C@@H]1c1nc2ccccc2[nH]1", "drug sensitivity score", 0],
  ["O=C(O)c1ccc(O)c2ncccc12", "drug sensitivity score", 4.6],
  ["O=c1sn(-c2cccc3ccccc23)c(=O)n1Cc1ccccc1", "drug sensitivity score", 0],
  ["C[C@H]1CN(C2COC2)CCN1c1ccc(Nc2cc(-c3ccnc(N4CCn5c(cc6c5CC(C)(C)C6)C4=O)c3CO)cn(C)c2=O)nc1", "drug sensitivity score", 0],
  ["COc1cc(C)[nH]c(=O)c1CNC(=O)c1c(C)n([C@H](C)C2CCOCC2)c2ccccc12", "drug sensitivity score", 0],
  ["CC(C)N(CCCNC(=O)Nc1ccc(C(C)(C)C)cc1)C[C@H]1O[C@@H](n2cc(Br)c3c(N)ncnc32)[C@H](O)[C@@H]1O", "drug sensitivity score", 0],
  ["COc1ccc(COc2cc3oc(=O)c4cc(C(C)O)ccc4c3cc2OC)cc1 (stereo unspecified)", "drug sensitivity score", 0],
  ["C1=N/C2=N/c3ccc(OCCN4CCCC4)c(c3)COC/C=C/COCc3cccc(c3)C(=C1)N2", "drug sensitivity score", 8.2],
  ["Cc1ncc(Cl)cc1NCc1ccc(C(=O)N[C@@H](CC2CCCC2)C(=O)NC2CC2)s1", "drug sensitivity score", 0],
  ["NC(=O)/C(=C/n1cnc(-c2cc(C(F)(F)F)cc(C(F)(F)F)c2)n1)c1cncnc1 [Eltanexor]", "drug sensitivity score", 34.6],
  ["COc1cc2c(cc1-c1c(C)noc1C)ncc1[nH]c(=O)n([C@H](C)c3ccccn3)c12", "drug sensitivity score", 13.8],
  ["C[C@]12C=CC(=O)C=C1CC[C@@H]1[C@@H]2[C@@H](O)C[C@@]2(C)[C@H]1CC[C@]2(O)C(=O)CO", "drug sensitivity score", 0],
  ["CN(C)C1CCN(C(=O)c2ccc(NC(=O)Nc3ccc(-c4nc(N5CCOCC5)nc(N5CCOCC5)n4)cc3)cc2)CC1", "drug sensitivity score", 17.9]
]}

Each recorded value in this set is attributed to the supplement of paper PMC11616607.
